Tested on: ragweed (common ragweed, Ambrosia artemisiifolia)
Assay: Test C preemergence, ragweed
Type: in vivo
Details: 31 g ai/ha Preemergence; 0 is no effect, 100 is complete control
Given measured Plant response rating (0 to 100 scale), Ragweed, output TRUE if it is greater than or equal to 50 and FALSE if not.

- molecule: "Cc1cc(C)c(N2CCC(OCC3CCCO3)C2=O)cc1NS(=O)(=O)C(F)(F)F (stereo not shown)"
  label-value: "FALSE"
- molecule: "C#CC(C)OC1CCN(c2cc(NS(=O)(=O)C(F)(F)F)c(C)cc2C)C1=O (stereo not shown)"
  label-value: "TRUE"
- molecule: "Cc1c(N2CCC(OC3CC3)C2=O)cc(N(C(=O)OCC(C)C)S(=O)(=O)C(F)(F)F)c(C)c1C (stereo not shown)"
  label-value: "FALSE"
- molecule: "Cc1c(N2CCCC(OC3CC3)C2=O)cc(N(COC(=O)C(C)(C)C)S(=O)(=O)C(F)(F)F)c(C)c1F (stereo not shown)"
  label-value: "FALSE"
- molecule: "Cc1cc(C)c(N2CCC(OCC3CCCC3)C2=O)cc1NS(=O)(=O)C(F)(F)F (stereo not shown)"
  label-value: "FALSE"
- molecule: "Cc1c(NS(=O)(=O)C(F)(F)F)cc(N2CCC(OC3CC3)C2=O)c(C)c1C (stereo not shown)"
  label-value: "TRUE"
- molecule: "Cc1cc(C)c(N2CCC(OCC3CCC3)C2=O)cc1NS(=O)(=O)C(F)(F)F (stereo not shown)"
  label-value: "FALSE"
- molecule: "Cc1cc(C)c(N(COC(=O)C(C)(C)C)S(=O)(=O)C(F)(F)F)cc1N1CCC(OCC2CCC2)C1=O (stereo not shown)"
  label-value: "FALSE"
- molecule: "CCCC(=O)OCN(c1cc(N2CCC(OC3CC3)C2=O)c(C)cc1C)S(=O)(=O)C(F)(F)F (stereo not shown)"
  label-value: "TRUE"
- molecule: "Cc1c(N2CCCC(OC3CCC3)C2=O)cc(N(COC(=O)C(C)(C)C)S(=O)(=O)C(F)(F)F)c(C)c1F (stereo not shown)"
  label-value: "FALSE"
- molecule: "CCOC(=O)N(c1cc(N2CCC(OC3CC3)C2=O)c(C)cc1C)S(=O)(=O)C(F)(F)F (stereo not shown)"
  label-value: "FALSE"
- molecule: "COC(=O)N(c1cc(N2CCC(OC3CC3)C2=O)c(C)cc1C)S(=O)(=O)C(F)(F)F (stereo not shown)"
  label-value: "FALSE"

Value source: patent US20240158348A1
